Assay Name: clinical
Condition: both, human, in vivo, 35 ug, Cmax
Outcome Measure: Cmax (ng/mL)
Answer with a number only, understood to be in ng/mL.

Q: Item Cc1cccc([C@H](C)c2cnc[nH]2)c1C [Dexmedetomidine] : provide Cmax
Result: 0.09

---

Assay Name: clinical
Condition: both, human, in vivo, 35 ug, AUClast
Outcome Measure: AUC(0-t) (ng·h/mL)
Answer with a number only, understood to be in ng·h/mL.

Q: Item `Cc1cccc([C@H](C)c2cnc[nH]2)c1C` : provide AUC(0-t)
Result: 0.38
